These data points were gathered from ChEMBL document CHEMBL1123313.

Hi there, I'd appreciate the recorded IC50 for every entry that follows.
- System: Lacticaseibacillus casei
- ASSAY TEXT: Inhibitory activity against Lactobacillus casei MTX-resistant
- Format: functional, organism-based
- MEASUREMENT SETUP: Lacticaseibacillus casei; read-out: IC50

-- ask Answer with the recorded IC50 of C#CCN(Cc1ccc2[nH]c(N)nc(=O)c2c1)c1ccc(C(=O)NC(CCC(=O)O)C(=O)O)cc1 (stereo not given) only.
-- reply 2 µg/mL

-- ask Give the value of IC50 reported for the following: C#CCN(Cc1cnc2nc(N)nc(O)c2n1)c1ccc(C(=O)O)cc1
-- reply > 2 µg/mL

-- ask Give IC50 for C#CCN(CC1CNc2nc(N)nc(O)c2N1)c1ccc(C(=O)NC(CCC(=O)O)C(=O)O)cc1 (stereo not given)
-- reply > 2 µg/mL

-- ask Please look at this molecule and report its IC50: C#CCN(CC1=Nc2c(O)nc(N)nc2NC1)c1ccc(C(=O)NC(CCC(=O)O)C(=O)O)cc1 (stereo not given)
-- reply > 2 µg/mL

-- ask Look up and state reported IC50 for C#CCN(Cc1cnc2nc(N)nc(O)c2n1)c1ccc(C(=O)NC(CCC(=O)O)C(=O)O)cc1 (stereo not given)
-- reply > 2 µg/mL

* * *

Target protein (sequence): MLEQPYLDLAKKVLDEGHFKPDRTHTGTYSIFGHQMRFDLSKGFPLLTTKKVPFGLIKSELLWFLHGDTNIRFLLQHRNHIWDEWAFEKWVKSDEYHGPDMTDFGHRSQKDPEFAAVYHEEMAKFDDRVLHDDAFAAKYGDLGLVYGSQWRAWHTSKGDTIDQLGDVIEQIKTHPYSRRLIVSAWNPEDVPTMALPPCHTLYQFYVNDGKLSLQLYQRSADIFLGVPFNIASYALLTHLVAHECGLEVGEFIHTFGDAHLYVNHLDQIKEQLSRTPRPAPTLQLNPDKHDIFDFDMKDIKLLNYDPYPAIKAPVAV
Record form. Attribute: IC50. Fill in for each entry.
Express the result in µM but write the number alone.

-- ask Consider the compound C#CCN(CC1=Nc2c(O)nc(N)nc2NC1)c1ccc(C(=O)NC(CCC(=O)O)C(=O)O)cc1 (centres undefined) . State its measured IC50.
-- reply 50

-- ask Consider the compound C#CCN(CC1CNc2nc(N)nc(O)c2N1)c1ccc(C(=O)NC(CCC(=O)O)C(=O)O)cc1 (centres undefined) . State its measured IC50.
-- reply 32

-- ask Please list IC50 recorded for the compound C#CCN(Cc1cnc2nc(N)nc(O)c2n1)c1ccc(C(=O)NC(CCC(=O)O)C(=O)O)cc1 (centres undefined)
-- reply 3.9

* * *

Provide the reported IC50 of each item.
- Test system: Enterococcus faecium
- ASSAY TEXT: Inhibitory activity against Streptococcus faecium MTX-resistant
- Format: functional, organism-based

-- ask Please look at this compound and report its IC50: C#CCN(CC1=Nc2c(O)nc(N)nc2NC1)c1ccc(C(=O)NC(CCC(=O)O)C(=O)O)cc1 (centres undefined)
-- reply 0.024 µg/mL

-- ask Indicate the recorded IC50 value for this compound: C#CCN(Cc1cnc2nc(N)nc(O)c2n1)c1ccc(C(=O)O)cc1
-- reply > 2 µg/mL

-- ask Input C#CCN(Cc1cnc2nc(N)nc(O)c2n1)c1ccc(C(=O)NC(CCC(=O)O)C(=O)O)cc1 (centres undefined) , output reported IC50.
-- reply > 2 µg/mL

-- ask For the compound C#CCN(CC1CNc2nc(N)nc(O)c2N1)c1ccc(C(=O)NC(CCC(=O)O)C(=O)O)cc1 (centres undefined) , report IC50.
-- reply > 2 µg/mL
